- tested.on: his-tagged FABP4 (Homo sapiens)
- Construct: purchased Cayman Chemical Company
- Sequence (P15090 whole entry): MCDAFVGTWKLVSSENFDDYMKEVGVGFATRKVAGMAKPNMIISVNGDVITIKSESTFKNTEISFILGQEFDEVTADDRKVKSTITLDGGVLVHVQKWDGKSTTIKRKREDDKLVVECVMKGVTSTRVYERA
- measurement.description: Competition binding assay with 1,8-ANS as tracer
observed.property: Kd
The number alone won't do; follow it with the unit.

Q) Which Kd is listed for O=S(=O)(O)c1cccc2cccc(Nc3ccccc3)c12 [1,8-ANS, 8-anilino-1-naphthalene sulfonic acid, reference compound] ?
A) 1200 nM

---

- measurement.description: Partition coefficient, 1-octanol/phosphate buffer pH 7.4
- Type: physicochemical
- setup.conditions: 1-octanol/phosphate buffer (PBS(-))
observed.property: logP
One number for each entry.

Q) Which logP is listed for O=c1cc(COc2cccc([125I])c2)[nH]c2nc(-c3ccccc3)nn12 [[^125I]TAP1] ?
A) 2.7
